Assay: CCTE_Shafer_MEA_acute_interburst_interval_mean: CCTE's Neural Acute Assay for Mean Interburst Interval, Shafer Lab (AID 2284016);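 note: percent change of mean interburst interval versus each well's own pre-dose baseline; curves fitted for decrease in interburst interval relative to DMSO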
The source made the active and inactive calls. Rule for the calls: active = hit-call score of the fitted dose curve at least 0.9, where 1 is the maximum; inactive = score below 0.9.
Outcome codes: Y (active), N (inactive)

[
  {
    "structureAsSmiles": "O=C(Nc1ccc([N+](=O)[O-])cc1Cl)c1cc(Cl)ccc1O",
    "qualitativeLabel": "Y"
  },
  {
    "structureAsSmiles": "Cc1nn(C)c(Oc2ccccc2)c1C=NOCc1ccc(C(=O)OC(C)(C)C)cc1",
    "qualitativeLabel": "Y"
  },
  {
    "structureAsSmiles": "O=C(c1ccccc1)C1CCCCC1",
    "qualitativeLabel": "N"
  }
]
